Hello, the source for this data is patent US20110046056A1, in case you need it.

- Tested Target: ATP-binding cassette transporter A1 (ABCA1) (mouse, UniProt P41233 1-2261)
- Sequence (P41233 whole entry): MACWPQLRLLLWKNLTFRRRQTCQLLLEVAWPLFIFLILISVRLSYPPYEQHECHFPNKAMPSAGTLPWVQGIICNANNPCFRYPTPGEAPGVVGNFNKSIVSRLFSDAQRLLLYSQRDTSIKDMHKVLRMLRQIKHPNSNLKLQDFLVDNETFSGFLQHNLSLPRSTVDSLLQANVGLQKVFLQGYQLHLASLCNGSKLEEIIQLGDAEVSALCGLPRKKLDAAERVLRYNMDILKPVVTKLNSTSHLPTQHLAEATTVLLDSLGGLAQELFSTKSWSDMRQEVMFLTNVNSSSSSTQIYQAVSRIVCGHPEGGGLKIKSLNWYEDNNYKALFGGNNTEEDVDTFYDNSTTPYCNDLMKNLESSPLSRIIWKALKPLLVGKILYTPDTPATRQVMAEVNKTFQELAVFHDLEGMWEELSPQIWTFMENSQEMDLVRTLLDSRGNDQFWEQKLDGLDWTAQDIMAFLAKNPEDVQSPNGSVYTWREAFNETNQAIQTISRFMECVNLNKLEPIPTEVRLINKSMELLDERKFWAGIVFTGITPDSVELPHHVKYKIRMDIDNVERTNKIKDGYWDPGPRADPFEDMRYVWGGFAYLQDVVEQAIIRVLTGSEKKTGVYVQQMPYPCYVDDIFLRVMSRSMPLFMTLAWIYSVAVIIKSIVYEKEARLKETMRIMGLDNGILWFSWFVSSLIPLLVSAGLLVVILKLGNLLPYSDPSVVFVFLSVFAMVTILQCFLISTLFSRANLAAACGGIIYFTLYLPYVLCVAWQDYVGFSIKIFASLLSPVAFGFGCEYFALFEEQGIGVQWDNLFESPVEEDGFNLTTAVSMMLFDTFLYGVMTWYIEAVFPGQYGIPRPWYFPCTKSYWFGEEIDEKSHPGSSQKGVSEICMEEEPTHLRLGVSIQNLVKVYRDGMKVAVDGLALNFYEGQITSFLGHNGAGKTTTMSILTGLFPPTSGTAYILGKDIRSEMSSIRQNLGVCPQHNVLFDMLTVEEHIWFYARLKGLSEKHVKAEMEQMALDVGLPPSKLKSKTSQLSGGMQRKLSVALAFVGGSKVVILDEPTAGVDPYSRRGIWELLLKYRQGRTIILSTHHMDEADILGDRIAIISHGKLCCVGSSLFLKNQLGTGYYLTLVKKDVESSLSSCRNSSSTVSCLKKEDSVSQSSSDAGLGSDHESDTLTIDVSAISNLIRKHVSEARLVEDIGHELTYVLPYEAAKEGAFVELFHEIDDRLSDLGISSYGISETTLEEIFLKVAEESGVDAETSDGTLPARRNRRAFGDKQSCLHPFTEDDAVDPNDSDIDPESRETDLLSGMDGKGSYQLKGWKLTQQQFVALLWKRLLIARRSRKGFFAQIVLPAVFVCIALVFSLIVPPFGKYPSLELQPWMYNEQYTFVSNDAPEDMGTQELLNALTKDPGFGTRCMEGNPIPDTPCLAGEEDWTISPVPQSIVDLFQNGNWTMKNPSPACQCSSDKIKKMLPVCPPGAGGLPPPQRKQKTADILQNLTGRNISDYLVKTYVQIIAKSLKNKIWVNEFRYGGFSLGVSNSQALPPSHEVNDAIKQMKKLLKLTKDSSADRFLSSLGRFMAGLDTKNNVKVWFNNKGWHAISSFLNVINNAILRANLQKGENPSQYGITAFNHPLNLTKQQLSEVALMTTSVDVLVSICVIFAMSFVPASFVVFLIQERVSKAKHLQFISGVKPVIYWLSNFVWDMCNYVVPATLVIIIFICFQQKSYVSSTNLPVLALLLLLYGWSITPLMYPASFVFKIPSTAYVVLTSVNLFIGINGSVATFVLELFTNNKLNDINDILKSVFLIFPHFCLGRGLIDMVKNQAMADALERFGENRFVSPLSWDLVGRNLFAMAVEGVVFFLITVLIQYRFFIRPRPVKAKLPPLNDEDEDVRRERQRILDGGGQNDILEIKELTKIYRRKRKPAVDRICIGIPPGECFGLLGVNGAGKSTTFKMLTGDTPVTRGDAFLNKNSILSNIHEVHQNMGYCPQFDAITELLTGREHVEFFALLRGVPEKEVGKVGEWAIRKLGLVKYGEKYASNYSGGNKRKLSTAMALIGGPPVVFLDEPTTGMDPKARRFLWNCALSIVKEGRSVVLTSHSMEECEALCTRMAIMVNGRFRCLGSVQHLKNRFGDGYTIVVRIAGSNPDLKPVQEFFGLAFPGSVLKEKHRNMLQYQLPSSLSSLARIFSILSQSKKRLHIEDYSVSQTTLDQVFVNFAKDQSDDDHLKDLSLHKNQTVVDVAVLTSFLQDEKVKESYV
- Measurement Description: cell-based or functional assay
*1 amine or outer side, *2 acyl side, *3 side chain or, on linkers, in order; H or OH if unused. Where no end group is shown, it is not given here. [ ]: non-standard residue; d: D form. dStyrA = (R)-styryl-alanine, (D)-StyrA, O=C([C@@H](C/C=C/c1ccccc1)N[*:1])[*:2]; S6H = (2S)-2-aminooct-7-enoic acid, C=CCCCC[C@H](N[*:1])C(=O)[*:2]; S7H3 = (2S)-2-aminononanoic acid, CCCCCCC[C@H](N[*:1])C(=O)[*:2]; Leu(5,5,5,5',5',5'-F6) = N[C@@H](CC(C(F)(F)F)C(F)(F)F)C(=O)O; dGly(6-heptenyl) = C=CCCCCC[C@@H](N)C(=O)O; Ala(5-hexenyl) = C=CCCCCC[C@H](N)C(=O)O; S8H3 = not defined here
Rule: measured ABCA1-dependent cholesterol efflux EC50 below 1 µM gets Satisfied; anything equal to or greater than 1 µM gets Not satisfied.

| Binder | Group Label |
| --- | --- |
| Ac-PVLDE[S7H3]REKLNE[S7H3]LEALKQKLK (not fully specified (C-terminus); printed as PVLDES7H3REKLNES7H3LEALKQKLK) [CONS[S7H3^6,13]] | Satisfied |
| Ac-PVLDE[dGly(6-heptenyl)]REKLNE[Ala(5-hexenyl)]LEALKQ[Ala(5-hexenyl)]LK (not fully specified (C-terminus); printed as PVLDER7HREKLNES7HLEALKQS7HLK) [CONS[R7H^6, S7H^13,20]] | Satisfied |
| Ac-PVLEEFREKLQE[S8H3]LEALKQKLK (not fully specified (C-terminus); printed as PVLEEFREKLQES8H3LEALKQKLK; reading uncertain; also: calls X13 alkenyl side chain-substituted amino acid) [CONS[E^4, Q^11, S8H3^13,]] | Satisfied |
| Ac-PVLDEFREKLNE[Leu(5,5,5,5',5',5'-F6)]LEALKQKLK (not fully specified (C-terminus)) [CONS[HF-LEU^,13]] | Not satisfied |
| Ac-[dP][dV][dL][dD][dE][S6H][dR][dE][dK][dL][dN][dE][dGly(6-heptenyl)][dL][dE][dA][dL][dK][dQ][dK][dL][dK] (not fully specified (C-terminus)) [D-CONS[S6H^6, R7H^13]] | Not satisfied |
| Ac-PVLDEFREKLNEELEALKQ[S6H]LK (not fully specified (C-terminus); printed as PVLDEFREKLNEELEALKQS6HLK) [CONS[S6H^20]] | Not satisfied |
| Ac-PVLDEFREKLNE[Ala(5-hexenyl)]LEALKQKLK [CONS[S7H^13]] | Not satisfied |
| Ac-PVLDEFREKLNE[dStyrA]LEALKQKLK (not fully specified (C-terminus)) [CONS[(R)STYRA^13]] | Not satisfied |
| Ac-P[Ala(5-hexenyl)]LDE[dGly(6-heptenyl)]REKLNE[Ala(5-hexenyl)]LEALKQKLK (not fully specified (C-terminus)) [CONS[R7H^6, S7H^2,13]] | Satisfied |
